Hi there, I'd appreciate the recorded inhibition for every entry that follows.
Biological target: Neuropilin-1 (Homo sapiens) (UniProt O14786)
Sequence (O14786 whole entry, looked up): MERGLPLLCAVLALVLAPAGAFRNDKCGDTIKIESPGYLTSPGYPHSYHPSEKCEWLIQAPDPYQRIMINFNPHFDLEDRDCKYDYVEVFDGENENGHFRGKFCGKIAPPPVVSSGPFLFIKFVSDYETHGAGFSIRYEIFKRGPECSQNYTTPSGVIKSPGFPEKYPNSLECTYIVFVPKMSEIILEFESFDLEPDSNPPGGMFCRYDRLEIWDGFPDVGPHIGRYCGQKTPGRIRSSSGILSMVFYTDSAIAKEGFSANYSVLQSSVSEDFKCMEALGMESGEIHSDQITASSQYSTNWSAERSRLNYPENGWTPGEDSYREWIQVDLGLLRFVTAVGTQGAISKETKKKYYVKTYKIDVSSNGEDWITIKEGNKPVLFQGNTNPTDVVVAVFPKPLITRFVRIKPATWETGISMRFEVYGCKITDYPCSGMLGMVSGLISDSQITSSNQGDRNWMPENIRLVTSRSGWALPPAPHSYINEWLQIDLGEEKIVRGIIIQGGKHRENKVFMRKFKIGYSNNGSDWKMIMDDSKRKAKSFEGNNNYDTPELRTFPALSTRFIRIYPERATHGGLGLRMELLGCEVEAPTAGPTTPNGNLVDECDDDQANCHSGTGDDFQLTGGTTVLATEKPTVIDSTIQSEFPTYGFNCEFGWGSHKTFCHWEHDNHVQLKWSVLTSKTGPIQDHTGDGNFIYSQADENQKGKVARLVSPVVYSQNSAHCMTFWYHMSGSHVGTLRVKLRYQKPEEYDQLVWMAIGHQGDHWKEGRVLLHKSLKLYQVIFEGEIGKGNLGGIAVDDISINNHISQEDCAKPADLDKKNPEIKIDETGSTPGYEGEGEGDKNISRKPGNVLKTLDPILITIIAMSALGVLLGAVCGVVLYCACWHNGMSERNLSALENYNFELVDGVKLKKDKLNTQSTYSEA
Experiment: blockers of CendR peptide binding to NRP-1 – biochemical, FP and AlphaScreen panel, dose response (AID 651650)
Conditions: NRP-1 b1b2 / RPARPAR peptide binding, FP or AlphaScreen; run 1, at 100 µM (top of the series)
Give bare numbers, in %.

The cases that follow already have their inhibition on record.
>>> valueobserved("Cc1ccc(C2(O)CCN3CCCCC32)cc1 (stereo not given)")
-5.87
>>> valueobserved("CC1(C)CN=C(Nc2ccc(F)c(Cl)c2)S1")
82.2
>>> valueobserved("CC(=O)OC1CC[C@]2(C#N)[C@H]3CC[C@]4(C)[C@H](C5C=CC(=O)O5)CCC4(O)C3CCC2(O)C1 (stereo not given in full)")
58.3
>>> valueobserved("Cc1ccc(C(=O)C2CN3CCC2CC3)cc1 (stereo not given)")
26.3
>>> valueobserved("COC(=O)C1=C(c2ccc(F)cc2OCc2ccccc2)C[C@@H]2CC[C@H]1N2C(=O)NCCNC(C)=O")
95.9

Take each entry in turn and give its inhibition.
1. O=S(=O)(c1cc(Cl)cc(Cl)c1)N1Cc2cc(-c3ccccc3)ccc2-n2nncc2C1
2. CN1C[C@H](CO)C=C2c3cccc4[nH]cc(c34)C[C@H]21
3. CCC1C2Cc3ccc(O)cc3C1(CC)CCN2C (stereo not given)
4. C=CCN1C(=O)C2(C(C(=O)OCC)=C(N)Oc3ccccc32)c2c1c1ccccc1oc2=O (stereo not given)
5. CCC(=NCCc1ccccc1)c1c(O)n(C2CCCCC2)c(=O)[nH]c1=O

1. 13.6
2. 51.6
3. 3.24
4. 4.11
5. 42.9
